Reference source for all entries: the supplement of paper PMC11246515

- Experiment: total protein half-life in vivo (active degradation + dilution); higher = more stable protein
- Condition context: wild type E. coli NCM3722; growth: C-lim chemostat; doubling time 6 h
Property: total protein half-life in vivo (h)
Numeric only. Scale: h

{"Chain": "MRYIVALTGGIGSGKSTVANAFADLGINVIDADIIARQVVEPGAPALHAIADHFGANMIAADGTLQRRALRERIFANPEEKNWLNALLHPLIQQETQHQIQQATSPYVLWVVPLLVENSLYKKANRVLVVDVSPETQLKRTMQRDDVTREHVEQILAAQATREARLAVADDVIDNNGAPDAIASDVARLHAHYLQLASQFVSQEKP [P0A6I9]", "Property": "total protein half-life in vivo", "Unit annotation": "h", "Observed": 4.83}
{"Chain": "MQRETVWLVEDEQGIADTLVYMLQQEGFAVEVFERGLPVLDKARKQVPDVMILDVGLPDISGFELCRQLLALHPALPVLFLTARSEEVDRLLGLEIGADDYVAKPFSPREVCARVRTLLRRVKKFSTPSPVIRIGHFELNEPAAQISWFDTPLALTRYEFLLLKTLLKSPGRVWSRQQLMDSVWEDAQDTYDRTVDTHIKTLRAKLRAINPDLSPINTHRGMGYSLRGL", "Property": "total protein half-life in vivo", "Unit annotation": "h", "Observed": 4.86}

Let us examine a further case.
[ask] Item MYPVDLHMHTVASTHAYSTLSDYIAQAKQKGIKLFAITDHGPDMEDAPHHWHFINMRIWPRVVDGVGILRGIEANIKNVDGEIDCSGKMFDSLDLIIAGFHEPVFAPHDKATNTQAMIATIASGNVHIISHPGNPKYEIDVKAVAEAAAKHQVALEINNSSFLHSRKGSEDNCREVAAAVRDAGGWVALGSDSHTAFTMGEFEECLKILDAVDFPPERILNVSPRRLLNFLESRGMAPIAEFADL has what recorded total protein half-life in vivo?
[reply] 4.99
